Known MIC of a selection of compounds
- System: Pseudomonas aeruginosa
- protocol.summary: Compound was tested for antibacterial activity against gram negative Pseudomonas aeruginosa AK109
- Format: functional
- stated.conditions: Pseudomonas aeruginosa; read-out: MIC
result.type: MIC (µg/mL)

1. COc1c(N2CC[C@@](CO)(C(F)(F)F)C2)c(F)cc2c(=O)c(C(=O)O)cn(C3CC3)c12 : 12.5
2. COc1c(N2CC[C@@](N)(C(F)(F)F)C2)c(F)cc2c(=O)c(C(=O)O)cn(C3CC3)c12.Cl : 6.25
3. CC1COc2c(N3CCN(C)CC3)c(F)cc3c(=O)c(C(=O)O)cn1c23 (stereo not given) [OFLOXACIN] : 1.56
4. NC1CCN(c2nc3c(cc2F)c(=O)c(C(=O)O)cn3-c2ccc(F)cc2F)C1 (stereo not given) [TOSUFLOXACIN] : 0.39
5. COc1c(N2C[C@@H](CN)[C@H](C(F)(F)F)C2)c(F)cc2c(=O)c(C(=O)O)cn(C3CC3)c12.Cl (racemic) : 1.56

====

- Test system: Acinetobacter calcoaceticus
- protocol.summary: Compound was tested for antibacterial activity against gram negative Acinetobacter calcoaceticus No.4
- Assay type: functional
- stated.conditions: Acinetobacter calcoaceticus; read-out: MIC
Known MIC of a selection of molecules
result.type: MIC (µg/mL)

1) COc1c(N2CC[C@@](CO)(C(F)(F)F)C2)c(F)cc2c(=O)c(C(=O)O)cn(C3CC3)c12 : 1.56
2) COc1c(N2C[C@@H](N)[C@H](C(F)(F)F)C2)c(F)cc2c(=O)c(C(=O)O)cn(C3CC3)c12.O=C(O)C(F)(F)F : 0.2
3) COc1c(N2C[C@H](CO)[C@H](C(F)(F)F)C2)c(F)cc2c(=O)c(C(=O)O)cn(C3CC3)c12 : 0.2
4) CC1COc2c(N3CCN(C)CC3)c(F)cc3c(=O)c(C(=O)O)cn1c23 (centres undefined) : 0.78
5) COc1c(N2C[C@H](CN)[C@H](C(F)(F)F)C2)c(F)cc2c(=O)c(C(=O)O)cn(C3CC3)c12.Cl : 0.1
6) COc1c(N2CC[C@@](N)(C(F)(F)F)C2)c(F)cc2c(=O)c(C(=O)O)cn(C3CC3)c12.Cl : 0.2
7) NC1CCN(c2nc3c(cc2F)c(=O)c(C(=O)O)cn3-c2ccc(F)cc2F)C1 (centres undefined) : 0.025
8) COc1c(N2C[C@@H](CN)[C@H](C(F)(F)F)C2)c(F)cc2c(=O)c(C(=O)O)cn(C3CC3)c12.Cl (racemic) : 0.1
9) COc1c(N2CC[C@@](CN)(C(F)(F)F)C2)c(F)cc2c(=O)c(C(=O)O)cn(C3CC3)c12.Cl : 1.56

====

- System: Proteus vulgaris
- protocol.summary: Compound was tested for antibacterial activity against gram negative Proteus vulgaris KS-134
- Assay type: functional
- stated.conditions: Proteus vulgaris; read-out: MIC
Known MIC of a selection of compounds
result.type: MIC (µg/mL)

1. COc1c(N2CC[C@@](N)(C(F)(F)F)C2)c(F)cc2c(=O)c(C(=O)O)cn(C3CC3)c12.Cl : 100
2. COc1c(N2C[C@@H](CN)[C@H](C(F)(F)F)C2)c(F)cc2c(=O)c(C(=O)O)cn(C3CC3)c12.Cl (racemic) : 50
3. COc1c(N2C[C@@H](CN)[C@H](C)C2)c(F)cc2c(=O)c(C(=O)O)cn(C3CC3)c12.Cl : 50
